System: BRCA2 (−/−) DLD1 cells
Test: PARP proliferation assay (7 day compound dosing), BRCA2 (−/−) DLD1
Assay type: cell-based
Details: Homo sapiens, DLD-1, 168 h, BRCA2 −/− DLD-1 cells, 7 day dosing; read-out: BRCA2 −/− DLD-1 prolif. 7 d IC50
observable: IC50 (nM)

mol	IC50 (nM)
CCc1nc2ccc(CN3CCN(c4ccc(C(=O)NC)nc4C(F)F)CC3)c(F)c2[nH]c1=O	3

P = CCc1nc2ccc(CN3CCN(c4ccc(C(=O)NC)nc4F)CC3)c(F)c2[nH]c1=O
Q = CNC(=O)c1ccc(N2CCN(Cc3ccc4nc(C(F)(F)F)c(=O)[nH]c4c3F)CC2)c(Cl)n1
(Q) Of P and Q , which carries the smaller reported IC50 figure? Please identify the chosen entry by its label.
(A) P

---

Tested on: BRCA2 (−/−) DLD1 cells
Assay: PARP proliferation assay (7 day compound dosing), BRCA2 (−/−) DLD1
Assay type: cell-based
Conditions: Homo sapiens, DLD-1, 168 h, BRCA2 −/− DLD-1 cells, 7 day dosing; read-out: BRCA2 −/− DLD-1 prolif. 7 d IC50
observable: IC50 (nM)

mol	assayedSystem	resultUnits	IC50
CNC(=O)c1ccc(N2CCN(Cc3ccc4nc(C(F)(F)F)c(=O)[nH]c4c3F)CC2)cn1	BRCA2 (−/−) DLD1 cells	nM	136
Cc1nc(C(N)=O)ccc1N1CCN(Cc2ccc3nc(C)c(=O)[nH]c3c2C)CC1	BRCA2 (−/−) DLD1 cells	nM	8430
CCc1nc2ccc(CN3CCN(c4ccc(C(=O)NC)nc4F)CC3)c(C)c2[nH]c1=O	BRCA2 (−/−) DLD1 cells	nM	10
CNC(=O)c1ccc(N2CCN(Cc3ccc4nc(C)c(=O)[nH]c4c3Cl)CC2)c(F)n1	BRCA2 (−/−) DLD1 cells	nM	1050
CNC(=O)c1ccc(N2CCN(Cc3ccc4nc(OC)c(=O)[nH]c4c3F)CC2)c(F)n1	BRCA2 (−/−) DLD1 cells	nM	8

1 = CNC(=O)c1ccc(N2CCN(Cc3ccc4nc(C)c(=O)[nH]c4c3F)CC2)c(Cl)n1
2 = CNC(=O)c1ccc(N2CCN(Cc3ccc4ncc(=O)[nH]c4c3F)CC2)c(F)n1
(Q) For this pair, 1 and 2 , which shows a numerically higher IC50? Please identify the chosen entry by its label.
(A) 2

A = CNC(=O)c1ccc(N2CCN(Cc3ccc4nc(C(F)F)c(=O)[nH]c4c3F)CC2)c(C)n1
B = CNC(=O)c1ccc(N2CCN(Cc3ccc4nc(OC)c(=O)[nH]c4c3F)CC2)c(Cl)n1
C = CNC(=O)c1ccc(N2CCN(Cc3ccc4nc(C)c(=O)[nH]c4c3F)CC2)cn1
(Q) Rank items: key IC50, increasing. // list labels; follow requested order
(A) B, A, C
(B: 7 nM, A: 10 nM, C: 1080 nM)

---

Test system: BRCA2 (−/−) DLD1 cells
Assay: PARP proliferation assay (7 day compound dosing), BRCA2 (−/−) DLD1
Type: cell-based
Settings: Homo sapiens, DLD-1, 168 h, BRCA2 −/− DLD-1 cells, 7 day dosing; read-out: BRCA2 −/− DLD-1 prolif. 7 d IC50
pIC50: −log10 of the molar value.
observable: pIC50

mol	pIC50
CCNC(=O)c1ccc(N2CCN(Cc3ccc4nc(C)c(=O)[nH]c4c3F)CC2)c(C)n1	7.89
CNC(=O)c1ccc(N2CCN(Cc3ccc4nc(C)c(=O)[nH]c4c3C)CC2)c(F)n1	7.85
CNC(=O)c1ccc(N2CCN(Cc3ccc4nc(OC)c(=O)[nH]c4c3F)CC2)cn1	6.26
CNC(=O)c1ccc(N2CCN(Cc3ccc4nc(C(C)(F)F)c(=O)[nH]c4c3F)CC2)c(C)n1	8.22
CCNC(=O)c1ccc(N2CCN(Cc3ccc4nc(C)c(=O)[nH]c4c3F)CC2)c(F)n1	8.22

P = CNC(=O)c1ccc(N2CCN(Cc3ccc4ncc(=O)[nH]c4c3F)CC2)c(Cl)n1
Q = CCc1nc2ccc(CN3CCN(c4ccc(C(N)=O)nc4)CC3)c(F)c2[nH]c1=O
(Q) For this pair, P and Q , which shows a numerically higher pIC50? Please identify the chosen entry by its label.
(A) Q
(Q: 6.53, P: 5.07)
